assay_remarks: Pharmacokinetic study in rats after oral administration of QSG
particulars: rat plasma, single oral 7 g/kg QSG, n = 6
recorded_metric: MRT (h)
All answers are understood in h, so give the number only.

Looking for the measured MRT of O=C(/C=C/c1ccc(O)c(O)c1)O[C@H]1[C@H](O)C[C@](O)(C(=O)O)C[C@H]1OC(=O)/C=C/c1ccc(O)c(O)c1 , can you help?
8.361

Same question, O=C(/C=C/c1ccc(O)c(O)c1)O[C@@H]1C[C@@](O)(C(=O)O)C[C@@H](O)[C@@H]1O this time
6.104

Same again, this time with CC(C)(O)[C@@H]1CC[C@](C)([C@H]2[C@@H](O)C[C@@]3(C)[C@@H]4C[C@H](O[C@@H]5O[C@H](CO)[C@@H](O)[C@H](O)[C@H]5O)[C@H]5C(C)(C)[C@@H](O[C@@H]6OC[C@@H](O)[C@H](O)[C@H]6O)CC[C@@]56C[C@@]46CC[C@]23C)O1 [Astragaloside IV]
6.104

Subsequent entry: O=C(/C=C/c1ccc(O)c(O)c1)O[C@H]1[C@H](O)C[C@](O)(C(=O)O)C[C@H]1O
8.933

----------
For each record, write down the corresponding concentration at 12 h.
assay_remarks: Concentrations of 24 analytes in QSG treated plasma (Table S5)
particulars: Sprague Dawley, rat, plasma, oral, 7 g/kg
Please give a number only; it is taken to be in ng/mL.

What does the record list as concentration at 12 h for O=c1cc(-c2ccc(O)c(O)c2)oc2cc(O)cc(O)c12 ?
0.042

Can you handle O=C1C[C@@H](c2ccc(O[C@@H]3O[C@H](CO)[C@@H](O)[C@H](O)[C@H]3O)cc2)Oc2cc(O)ccc21 next?
1.36

Repeat with O=C(/C=C/c1ccc(O)cc1)c1ccc(O)cc1O
0.124

What do we get for O=C(/C=C/c1ccc(O)c(O)c1)O[C@@H]1C[C@](O)(C(=O)O)C[C@@H](O)[C@H]1O ?
39.1

How about this compound: COc1ccc(-c2coc3cc(O)ccc3c2=O)cc1
0.289

Let us now turn to COc1ccc(-c2coc3cc(O)ccc3c2=O)cc1O
0.647

----------
assay_remarks: Pharmacokinetic study in rats after oral administration of QSG
particulars: Sprague Dawley, rat, plasma, po, 7 g/kg
Could you please report measured Tmax for the items listed next?
Quote the value and follow it with the unit of measurement.

Request the reported Tmax associated with O=C(/C=C/c1ccc(O)cc1)c1ccc(O)cc1O
10.2 min

Another molecule to look at: COc1ccc(-c2coc3cc(O)ccc3c2=O)cc1
31 min

For O=c1cc(-c2ccc(O)c(O)c2)oc2cc(O)cc(O)c12 then?
10.2 min

Now consider O=C(/C=C/c1ccc(O)c(O)c1)O[C@@H]1C[C@](O)(C(=O)O)C[C@@H](O)[C@H]1O and answer again.
33.8 min

----------
assay_remarks: Concentrations of 24 analytes in QSG treated plasma (Table S5)
particulars: QSG treated plasma, 4 h, n = 5
I'd appreciate it if you could supply Concentration values for the items below.
Report as a plain number; the unit ng/mL is understood.

Bench note: what Concentration did CC(C)(O)[C@@H]1CC[C@](C)([C@H]2[C@@H](O)C[C@@]3(C)[C@@H]4C[C@H](O[C@@H]5O[C@H](CO)[C@@H](O)[C@H](O)[C@H]5O)[C@H]5C(C)(C)[C@@H](O[C@@H]6OC[C@@H](O)[C@H](O)[C@H]6O)CC[C@@]56C[C@@]46CC[C@]23C)O1 [Astragaloside IV] show?
0.710

Another: COc1ccc(-c2coc3cc(O[C@@H]4O[C@H](CO)[C@@H](O)[C@H](O)[C@H]4O)ccc3c2=O)cc1O [Calycosin-7-O-glucoside, Calycosin-7-O-D-glucoside]
1.198

----------
Field: Cmax. Provide a value for each of the compounds that follow.
assay_remarks: Pharmacokinetic study in rats after oral administration of QSG
particulars: Sprague Dawley, rat, plasma, po, 7 g/kg
Could you kindly put the unit after your number?

Query (compound): COc1ccc(-c2coc3cc(O)ccc3c2=O)cc1 ; field requested: Cmax
4.31 ng/mL

Field entry: O=C(/C=C/c1ccc(O)cc1)c1ccc(O)cc1O
1.65 ng/mL

Lookup O=c1cc(-c2ccc(O)c(O)c2)oc2cc(O)cc(O)c12
12.8 ng/mL

----------
Field: concentration at 2 h. Provide a value for each of the compounds that follow.
assay_remarks: Concentrations of 24 analytes in QSG treated plasma (Table S5)
particulars: Sprague Dawley, rat, plasma, oral, 7 g/kg
Answer with a number only, understood to be in ng/mL.

# get_value(readout='concentration at 2 h', item= O=C(/C=C/c1ccc(O)cc1)c1ccc(O)cc1O )
0.179

Follow-up entry: COc1ccc(-c2coc3cc(O)ccc3c2=O)cc1
1.45

Now give it for O=C(/C=C/c1ccc(O)c(O)c1)O[C@@H]1C[C@](O)(C(=O)O)C[C@@H](O)[C@H]1O too.
77.2

Try this compound next: O=c1cc(-c2ccc(O)c(O)c2)oc2cc(O)cc(O)c12
0.911

And then O=C1C[C@@H](c2ccc(O[C@@H]3O[C@H](CO)[C@@H](O)[C@H](O)[C@H]3O)cc2)Oc2cc(O)ccc21 , what is it?
8.3

Input COc1ccc(-c2coc3cc(O)ccc3c2=O)cc1O
0.825

----------
assay_remarks: Pharmacokinetic study in rats after oral administration of QSG
particulars: Sprague Dawley, rat, plasma, po, 7 g/kg, AUC0→∞, Table S12, rats, oral QSG
recorded_metric: AUC(0-inf) (ng·h/mL)
Your answer is read as ng·h/mL, so omit the unit and give the number.

Consider the compound shown here: COc1ccc(-c2coc3cc(O)ccc3c2=O)cc1 What is its recorded AUC(0-inf)?
27.7

Similarly, O=C(/C=C/c1ccc(O)cc1)c1ccc(O)cc1O ?
4.89

----------
assay_remarks: Concentrations of 24 analytes in QSG treated plasma (Table S5)
particulars: Sprague Dawley, rat, plasma, oral, 7 g/kg
recorded_metric: concentration at 0.17 h (ng/mL)
The figure you give is taken to be in ng/mL; do not add the unit.

State the recorded concentration at 0.17 h for this entry: COc1ccc(-c2coc3cc(O)ccc3c2=O)cc1O
2.15

Okay, and O=c1cc(-c2ccc(O)c(O)c2)oc2cc(O)cc(O)c12 ?
13.6

Likewise for O=C(/C=C/c1ccc(O)c(O)c1)O[C@@H]1C[C@](O)(C(=O)O)C[C@@H](O)[C@H]1O ?
99.1

And what about the compound O=C(/C=C/c1ccc(O)cc1)c1ccc(O)cc1O ?
1.65

Also O=C1C[C@@H](c2ccc(O[C@@H]3O[C@H](CO)[C@@H](O)[C@H](O)[C@H]3O)cc2)Oc2cc(O)ccc21 ?
11.8

And then COc1ccc(-c2coc3cc(O)ccc3c2=O)cc1 , what is it?
2.81

----------
assay_remarks: Concentrations of 24 analytes in QSG treated plasma (Table S5)
particulars: Sprague Dawley, rat, plasma, oral, 7 g/kg
Give criterion met when the value for concentration at 0.5 h is at least 4 ng/mL. Give criterion not met when it is less.

Test whether the compound COc1ccc(-c2coc3cc(O)ccc3c2=O)cc1 records concentration at 0.5 h of 4 ng/mL or higher.
criterion met

// query: O=c1cc(-c2ccc(O)c(O)c2)oc2cc(O)cc(O)c12
criterion met

// next record O=C(/C=C/c1ccc(O)cc1)c1ccc(O)cc1O
criterion not met

Would you mind doing COC(=O)C1=CO[C@@H](O[C@@H]2O[C@H](CO)[C@@H](O)[C@H](O)[C@H]2O)[C@@H]2[C@H](C)O[C@@H](O)C[C@H]12 [Morroniside] as well?
criterion not met

# repeat for O=C(/C=C/c1ccc(O)c(O)c1)O[C@@H]1C[C@](O)(C(=O)O)C[C@@H](O)[C@H]1O
criterion met

Follow-up entry: COC(=O)C1=CO[C@@H](O[C@@H]2O[C@H](CO)[C@@H](O)[C@H](O)[C@H]2O)[C@@H]2[C@@H](C)[C@H](O)C[C@H]12 [7-epi-loganin]
criterion not met

Now the compound O=C1C[C@@H](c2ccc(O[C@@H]3O[C@H](CO)[C@@H](O)[C@H](O)[C@H]3O)cc2)Oc2cc(O)ccc21
criterion met

Another compound: COc1ccc(-c2coc3cc(O)ccc3c2=O)cc1O
criterion not met

----------
System: H9c2 cells
assay_remarks: Cytotoxicity on H9c2 cells (CCK-8)
Assay type: cell-based, rat
particulars: Rattus norvegicus; 25 μM, H9c2 cells, n=3; read-out: Inhibition rate
recorded_metric: inhibition at 25 µM
Express the reported value numerically, then name its unit.

Recorded inhibition at 25 µM of COC[C@@]12CC[C@H](OC)[C@]34C(C([C@H](OC)[C@H]13)[C@]1(OC(C)=O)[C@H]3[C@@H](OC(=O)c5ccccc5)[C@](O)(C[C@H]34)[C@@H](OC)[C@@H]1O)N(C)C2 , please.
13.7%

Could you do the same for COc1ccc(-c2coc3cc(O)ccc3c2=O)cc1 , please?
10.7%

Same question, O=C1C[C@@H](c2ccc(O[C@@H]3O[C@H](CO)[C@@H](O)[C@H](O)[C@H]3O)cc2)Oc2cc(O)ccc21 this time
-7.4%
